# target: human CYP11B2 (Homo sapiens)
# Sequence (P19099 25-503): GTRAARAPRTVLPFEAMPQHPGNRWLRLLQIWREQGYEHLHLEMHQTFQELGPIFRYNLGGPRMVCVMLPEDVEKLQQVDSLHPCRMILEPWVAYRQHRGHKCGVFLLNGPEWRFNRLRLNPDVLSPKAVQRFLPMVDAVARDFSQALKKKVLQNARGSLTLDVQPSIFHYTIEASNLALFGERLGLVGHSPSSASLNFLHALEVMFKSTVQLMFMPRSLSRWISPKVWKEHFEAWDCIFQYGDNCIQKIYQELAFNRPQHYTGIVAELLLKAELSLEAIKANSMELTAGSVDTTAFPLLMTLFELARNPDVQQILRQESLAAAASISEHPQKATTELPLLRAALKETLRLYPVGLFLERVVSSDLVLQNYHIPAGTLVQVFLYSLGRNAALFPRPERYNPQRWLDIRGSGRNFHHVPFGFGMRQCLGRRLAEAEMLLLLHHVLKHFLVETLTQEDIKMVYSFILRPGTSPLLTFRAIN
# experiment_summary: Inhibition of hCYP11B2 in transfected V79 cells
# condition_description: hamster V79 cells expressing human CYP11B2; substrate 11-deoxycorticosterone 200 nM
Give measured IC50 for each item. Keep answers brief.
# output: bare number, implied unit nM

Lab note: measured IC50 of N#Cc1ccc(-c2cncc3c2SCCN3S(=O)(=O)C2CN(Cc3cccc(F)c3)C2)cc1 [S83] was 0.8

Documented IC50 of O=C(c1ccc(F)cc1)n1ccc2c(-c3cc4ccccc4o3)cncc21 [E32] : 13

# IC50 (compound: Cn1cnc2cncc(-c3ccc(C#N)cc3)c21 [N6] ) is 655

Lookup result for COc1ccc(C(=O)N2CCc3c(-c4cc5cc(C#N)ccc5o4)cncc32)cc1 [C79] ; measured IC50: 46

For reference, reported IC50 for N#Cc1ccc(-c2cncc3c2OCCN3C(=O)c2ccc([N+](=O)[O-])cc2)cc1 [O26] stands at 22.4

Data point: O=C(c1ccc(F)cc1)n1ccc2c(-c3cc4ccccc4[nH]3)cncc21 [E34] ; IC50 = 5

According to the records, this compound N#Cc1ccc(-c2cncc3c2CCN3S(=O)(=O)c2ccccc2)cc1 [C21] displays IC50 of 0.01

The compound N#Cc1ccc(-c2cncc3c2OCCN3C(=O)CCc2ccc(F)cc2)cc1 [O47] showed IC50 equal to 3.8

IC50 measured on Cc1ccc(CC(=O)N2CCc3c(-c4ccc(C#N)cc4)cncc32)cc1 [C72] = 6.8

Measured IC50 of O=C(C1CN(Cc2cccc(F)c2)C1)N1CCOc2c(N3CCn4ccnc4C3)cncc21 [O137] : 57

get_value(item= N#Cc1ccc(-c2cncc3c2SCCN3S(=O)(=O)C2CN(S(=O)(=O)c3ccc(C#N)cc3)C2)cc1 [S76] , readout=IC50) returns 0.8

Sure, the documented IC50 for N#Cc1ccc(-c2cncc3c2ccn3C(=O)c2ccccc2C(F)(F)F)cc1 [E26] is 3.9

The recorded IC50 for O=C(C1CN(Cc2cccc(F)c2)C1)N1CCc2c(-c3cc4cc(Cl)ccc4[nH]3)cncc21 [C80] is 22

Record summary for N#Cc1ccc(C(=O)N2CCSc3c(-c4ccc(C#N)cc4)cncc32)cc1 [S94] : reported IC50 = 38

In plain terms, N#Cc1ccc(-c2cncc3c2OCCN3C(=O)c2ccco2)cc1 [O31] has a documented IC50 of 2.8

So for N#Cc1ccc(-c2cncc3c2ccn3C(=O)c2c(F)c(F)c(F)c(F)c2F)cc1 [E19] , the logged IC50 turned out to be 2.5

Looking up N#Cc1ccc(S(=O)(=O)N2CCOc3c(-c4ccc5ncoc5c4)cncc32)cc1 [O131] , I found its IC50 recorded as 3.3

# credit: patent US20260092074A1
